# Test system: B16F10 cells
# procedure details: MTS viability assay, B16F10
# Type: cell-based, murine
# test context: Mus musculus, B16-F10, 24 h
quantity: IC50 (µM)
Kindly provide the numeric value in µM only, without the unit symbol.

Quick one: IC50 of CCCCCCn1cnc2c(-c3ccc(OC(F)(F)F)cc3)nc(N3CCN(c4ccncc4)CC3)nc21 ? 27.5

---

# System: AsPC-1
# procedure details: MTT cytotoxicity assay, AsPC-1
# Format: cell-based
# test context: Homo sapiens, ASPC1, 72 h, 0.05–50 µM
Readings of IC50 for the listed molecules
Kindly provide the numeric value in µM only, without the unit symbol.

Quick one: IC50 of CCCCCCn1cnc2c(-c3ccc(OC(F)(F)F)cc3)nc(N3CCN(c4ccncc4)CC3)nc21 [Compound 4s] ? 1.7

---

# Test system: Daoy
# procedure details: MTT cytotoxicity assay, Daoy
# Format: cell-based, human
# test context: Homo sapiens, Daoy, 72 h, MTT, 0.05–50 µM
quantity: IC50 (µM)
Kindly provide the numeric value in µM only, without the unit symbol.

Examples from the recorded data:
molecule: CCCCn1cnc2c(-c3ccc(OC(F)(F)F)cc3)nc(NC3CCCC3)nc21 [Compound 4a]
IC50 (µM): 18
--
molecule: CCCCCCn1cnc2c(-c3ccc(OC(F)(F)F)cc3)nc(NC3CCCC3)nc21 [Compound 4c]
IC50 (µM): 31

Consider now this further molecule.
Quick one: IC50 of CCCCCn1cnc2c(-c3ccc(OC(F)(F)F)cc3)nc(NCC3CCCCC3)nc21 [Compound 4h] ? 19

---

Readings of IC50 for the listed compounds
# Tested on: AsPC-1
# procedure details: MTT cytotoxicity assay, AsPC-1
# Assay type: cell-based
# test context: Homo sapiens, ASPC1, 72 h, 0.05–50 µM
# Procedure: Cytotoxicity assays were performed by using the MTT reduction method as described previously. […] Formazan formation was measured at 570 nm in a multiwell plate reader (Cytation 5, Biotek Instruments, Winooski, VT, USA). […]

Quick one: IC50 of CCCCCn1cnc2c(-c3ccc(OC(F)(F)F)cc3)nc(NC3CCCCC3)nc21 [Compound 4e] ? > 50 µM

Quick one: IC50 of CCCCCCn1cnc2c(-c3ccc(OC(F)(F)F)cc3)nc(NC3CCCC3)nc21 [Compound 4c] ? > 50 µM

Quick one: IC50 of CCCCCn1cnc2c(-c3ccc(OC(F)(F)F)cc3)nc(NC3CCCC3)nc21 [Compound 4b] ? 23.2 µM

---

# System: Daoy
# procedure details: MTT cytotoxicity assay, Daoy;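 further: viability read as formazan absorbance at 570 nm after MTT reduction, three independent biological replicates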
# Type: cell-based, human
# test context: Homo sapiens, Daoy, 72 h, MTT, 0.05–50 µM
pIC50: −log10 of the molar value.
quantity: pIC50

molecule: CS(=O)(=O)c1ccc(C(=O)Nc2ccc(Cl)c(-c3ccccn3)c2)c(Cl)c1 [Vismodegib, reference compound]
quantity: pIC50
test value: < 4.30

molecule: CCCCCn1cnc2c(-c3ccc(OC(F)(F)F)cc3)nc(NC3CCCC3)nc21 [Compound 4b]
quantity: pIC50
test value: < 4.30

Record lookup: for Daoy, what pIC50 belongs to CCCCCn1cnc2c(-c3ccc(OC(F)(F)F)cc3)nc(NC3CCCCC3)nc21 [Compound 4e] ? < 4.30

---

# Test system: AsPC-1
# procedure details: MTT cytotoxicity assay, AsPC-1
# Type: cell-based
# test context: Homo sapiens, ASPC1, 72 h, 0.05–50 µM
# Protocol: Cytotoxicity assays were performed by using the MTT reduction method as described previously. […] Formazan formation was measured at 570 nm in a multiwell plate reader (Cytation 5, Biotek Instruments, Winooski, VT, USA). […]
quantity: IC50 (µM)
Kindly provide the numeric value in µM only, without the unit symbol.

Record lookup: for AsPC-1, what IC50 belongs to Nc1ccn([C@@H]2O[C@H](CO)[C@@H](O)C2(F)F)c(=O)n1 [Gemcitabine, reference compound] ? 0.3

Record lookup: for AsPC-1, what IC50 belongs to CCCCn1cnc2c(-c3ccc(OC(F)(F)F)cc3)nc(NC3CCCC3)nc21 [Compound 4a] ? 20.1

---

# Test system: AsPC-1
# procedure details: MTT cytotoxicity assay, AsPC-1
# Type: cell-based
# test context: Homo sapiens, ASPC1, 72 h, 0.05–50 µM
quantity: IC50

molecule: CCCCCn1cnc2c(-c3ccc(OC(F)(F)F)cc3)nc(NCC3CCCCC3)nc21
test value: > 50 µM
--
molecule: CCCCCn1cnc2c(-c3ccc(OC(F)(F)F)cc3)nc(N3CCN(c4ccncc4)CC3)nc21
test value: > 50 µM

Consider now this further molecule.
Quick one: IC50 of CS(=O)(=O)c1ccc(C(=O)Nc2ccc(Cl)c(-c3ccccn3)c2)c(Cl)c1 [Vismodegib, reference compound] ? > 50 µM
